These data points were gathered from paper PMC5362808.

Assayed target: TIE-2 (Homo sapiens)
Sequence (Q02763 23-1124): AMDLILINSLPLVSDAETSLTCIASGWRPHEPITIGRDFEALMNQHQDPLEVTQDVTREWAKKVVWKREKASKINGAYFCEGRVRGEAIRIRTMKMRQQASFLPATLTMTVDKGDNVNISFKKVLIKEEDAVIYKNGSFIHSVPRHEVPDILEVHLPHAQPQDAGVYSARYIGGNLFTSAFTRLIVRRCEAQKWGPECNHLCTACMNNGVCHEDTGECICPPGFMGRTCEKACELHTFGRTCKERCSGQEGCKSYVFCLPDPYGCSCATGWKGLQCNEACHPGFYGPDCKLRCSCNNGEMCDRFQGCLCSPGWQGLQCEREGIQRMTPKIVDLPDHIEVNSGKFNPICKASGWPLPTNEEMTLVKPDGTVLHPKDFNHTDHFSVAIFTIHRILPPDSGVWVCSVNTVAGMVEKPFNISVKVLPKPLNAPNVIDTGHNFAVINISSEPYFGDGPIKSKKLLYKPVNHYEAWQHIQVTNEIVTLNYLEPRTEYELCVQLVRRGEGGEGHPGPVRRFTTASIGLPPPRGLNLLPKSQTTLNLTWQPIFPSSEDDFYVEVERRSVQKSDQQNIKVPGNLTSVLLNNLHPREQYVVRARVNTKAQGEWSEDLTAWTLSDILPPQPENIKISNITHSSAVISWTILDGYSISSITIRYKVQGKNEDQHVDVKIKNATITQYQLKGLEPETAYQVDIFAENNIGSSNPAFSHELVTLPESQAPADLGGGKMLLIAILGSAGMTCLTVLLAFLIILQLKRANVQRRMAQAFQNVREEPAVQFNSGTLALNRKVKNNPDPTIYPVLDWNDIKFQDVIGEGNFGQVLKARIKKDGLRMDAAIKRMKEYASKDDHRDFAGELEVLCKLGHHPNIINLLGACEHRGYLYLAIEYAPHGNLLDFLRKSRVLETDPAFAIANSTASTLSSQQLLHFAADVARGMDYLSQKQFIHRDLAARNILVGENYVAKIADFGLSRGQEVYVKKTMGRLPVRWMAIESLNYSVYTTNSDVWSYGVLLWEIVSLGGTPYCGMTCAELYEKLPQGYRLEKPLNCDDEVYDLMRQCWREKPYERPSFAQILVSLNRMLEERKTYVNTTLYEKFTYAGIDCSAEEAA
Test: ADP-Glo kinase inhibition assay, TIE-2
Format: biochemical
Condition set: Table 1, ATP 50 μM, read-out: Tie-2 inhibitory activity (IC50)
pIC50: −log10 of the molar value.
Measured endpoint: pIC50

[[record]]
compound_smiles = "O=C(Nc1ccc(-c2ccc(NC(=O)C3CC3)nc2)cc1)Nc1ccc(C(F)(F)F)c(C(F)(F)F)c1"
numeric_readout = 7.56

[[record]]
compound_smiles = "O=C(Nc1ccc(-c2ccc(NC(=O)C3CC3)nc2)cc1)Nc1cccc(Cl)c1"
numeric_readout = 7.48


====

Assayed target: VEGFR-2 (Homo sapiens, UniProt P35968)
Sequence (P35968 20-1356): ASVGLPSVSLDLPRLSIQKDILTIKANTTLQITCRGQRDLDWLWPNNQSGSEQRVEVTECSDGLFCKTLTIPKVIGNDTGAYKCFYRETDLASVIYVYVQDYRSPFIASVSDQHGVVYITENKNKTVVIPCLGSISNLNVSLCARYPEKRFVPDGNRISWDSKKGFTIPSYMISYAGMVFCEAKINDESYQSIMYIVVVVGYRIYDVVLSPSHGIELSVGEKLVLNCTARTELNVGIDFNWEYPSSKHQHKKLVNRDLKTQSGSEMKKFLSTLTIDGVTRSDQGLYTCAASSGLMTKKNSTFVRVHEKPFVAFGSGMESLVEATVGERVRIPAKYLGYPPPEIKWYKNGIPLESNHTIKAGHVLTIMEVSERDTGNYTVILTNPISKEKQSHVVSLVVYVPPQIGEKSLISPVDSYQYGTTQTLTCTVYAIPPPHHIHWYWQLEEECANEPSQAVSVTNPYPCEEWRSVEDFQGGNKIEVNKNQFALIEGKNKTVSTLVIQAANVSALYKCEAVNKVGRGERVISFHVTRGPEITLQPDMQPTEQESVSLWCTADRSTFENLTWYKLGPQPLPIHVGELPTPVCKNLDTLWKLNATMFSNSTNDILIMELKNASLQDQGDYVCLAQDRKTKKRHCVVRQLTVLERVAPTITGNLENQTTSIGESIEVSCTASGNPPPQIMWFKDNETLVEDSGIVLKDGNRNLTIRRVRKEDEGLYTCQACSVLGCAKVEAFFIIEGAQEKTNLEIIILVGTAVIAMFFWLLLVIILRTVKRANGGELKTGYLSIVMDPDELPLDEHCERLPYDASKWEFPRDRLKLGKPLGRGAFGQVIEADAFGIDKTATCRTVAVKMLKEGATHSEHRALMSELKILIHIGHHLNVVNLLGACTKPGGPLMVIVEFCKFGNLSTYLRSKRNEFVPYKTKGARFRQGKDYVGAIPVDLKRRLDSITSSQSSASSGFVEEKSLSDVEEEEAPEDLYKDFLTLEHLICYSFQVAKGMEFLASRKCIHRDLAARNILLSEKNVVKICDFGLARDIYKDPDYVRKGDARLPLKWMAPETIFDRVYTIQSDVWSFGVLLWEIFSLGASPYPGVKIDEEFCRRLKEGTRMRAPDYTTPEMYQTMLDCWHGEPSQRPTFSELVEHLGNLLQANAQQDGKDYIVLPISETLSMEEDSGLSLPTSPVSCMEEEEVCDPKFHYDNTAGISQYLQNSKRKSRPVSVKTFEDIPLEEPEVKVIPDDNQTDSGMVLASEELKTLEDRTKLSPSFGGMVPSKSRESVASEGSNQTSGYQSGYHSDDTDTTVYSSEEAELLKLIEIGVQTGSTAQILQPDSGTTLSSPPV
Test: ADP-Glo kinase inhibition assay, VEGFR-2
Assay type: biochemical
Condition set: Table 1, ATP 50 μM, read-out: VEGFR-2 inhibitory activity (IC50)
Measured endpoint: IC50 (nM)

[[record]]
compound_smiles = "O=C(Nc1ccc(-c2ccc(NC(=O)C3CC3)nc2)cc1)Nc1cccc(C(F)(F)F)c1"
unit_abbreviation = "nM"
numeric_readout = 1.11

[[record]]
compound_smiles = "O=C(Nc1ccc(-c2ccc(NC(=O)C3CC3)nc2)cc1)Nc1ccc(F)c(F)c1"
unit_abbreviation = "nM"
numeric_readout = 1.42


I = O=C(Nc1ccc(-c2ccc(NC(=O)C3CC3)nc2)cc1)Nc1ccc(Cl)c(C(F)(F)F)c1
II = O=C(Nc1ccc(-c2ccc(NC(=O)C3CC3)nc2)cc1)Nc1ccc(C(F)(F)F)c(C(F)(F)F)c1
III = O=C(Nc1ccc(-c2ccc(NC(=O)C3CC3)nc2)cc1)Nc1cccc(Cl)c1
With regard to IC50, arrange the entries in ascending order, please. To answer, arrange all of the labels according to the requested order. I, II, III
(I: 1.01 nM, II: 2 nM, III: 23.3 nM)

====

Here's a batch of compounds along with measured IC50 for EGFR (Homo sapiens, UniProt P00533).
Measured endpoint: IC50 (µM)

[[record]]
compound = "O=C(Nc1ccc(-c2ccc(NC(=O)C3CC3)nc2)cc1)Nc1cccc(C(F)(F)F)c1 [CDAU-1]"
numeric_readout = 0.204

[[record]]
compound = "O=C(Nc1ccc(-c2ccc(NC(=O)C3CC3)nc2)cc1)Nc1ccc(Cl)c(C(F)(F)F)c1 [CDAU-2]"
numeric_readout = 0.191


====

Assayed target: VEGFR-2 (Homo sapiens)
Test: ADP-Glo kinase inhibition assay, VEGFR-2
Type: biochemical
Condition set: Table 2, ATP 50 μM, read-out: VEGFR-2 inhibitory activity (IC50)
Measured endpoint: IC50 (nM)

[[record]]
compound_smiles = "O=C(Nc1ccc(OC(F)(F)F)cc1)Nc1ccc(-c2cccc(NC(=O)C3CC3)n2)cc1"
unit_abbreviation = "nM"
numeric_readout = 34

[[record]]
compound_smiles = "O=C(Nc1ccc(-c2cccc(NC(=O)C3CC3)n2)cc1)Nc1ccccc1Cl"
unit_abbreviation = "nM"
numeric_readout = 73.4


A = CC(C)c1cccc(NC(=O)Nc2ccc(-c3cccc(NC(=O)C4CC4)n3)cc2)c1
B = CC(C)(C)c1ccc(NC(=O)Nc2ccc(-c3cccc(NC(=O)C4CC4)n3)cc2)cc1
When the recorded IC50 values are compared, which is smaller: that of A or that of B ? Reply briefly: the label of your chosen item. B

====

Assayed target: UniProt:P35968
Test: ADP-Glo kinase inhibition assay, VEGFR-2
Assay type: biochemical
Condition set: Table 2, ATP 50 μM, read-out: VEGFR-2 inhibitory activity (IC50)
Quick list: IC50 per entry.

Known IC50 results, listed for orientation:
[[record]]
compound_smiles = "O=C(Nc1ccc(-c2cccc(NC(=O)C3CC3)n2)cc1)Nc1ccc(F)cc1F"
result = "> 1000 nM"

[[record]]
compound_smiles = "O=C(Nc1ccc(-c2cccc(NC(=O)C3CC3)n2)cc1)Nc1ccccc1F"
result = "> 1000 nM"

[[record]]
compound_smiles = "O=C(Nc1ccc(-c2cccc(NC(=O)C3CC3)n2)cc1)Nc1ccc(Cl)c(C(F)(F)F)c1"
result = "> 1000 nM"


// next item, IC50 requested
Consider the molecule shown here: O=C(Nc1ccc(-c2cccc(NC(=O)C3CC3)n2)cc1)Nc1ccc(Cl)cc1Cl What is its recorded IC50? 42.7 nM
